target: β-ADRENOCEPTOR; assay: β-adrenoceptor binding ([125I]-pindolol); design: species or system guinea-pig; settings: read-out: potency for β-adrenoceptor
pIC50: −log10 of the molar value. Where a name gives a salt, the structure may show the parent alone.
reportedMetric: pIC50

Problem: Report pIC50 for O=C(OCCN1CCOCC1)C1(c2ccccc2)CCCCC1 [Compound 12, hydrochloride] please.
Result: < 3.70

====

tested on: MUSCARINIC ACETYLCHOLINE; type: binding, guinea-pig; conditions: Table 4; IC50 and nM only stated in text; read-out: MUSCARINIC ACETYLCHOLINE
Structures can show the parent of a compound that is named as a salt.
# maps each entry to its log10(IC50)
// stored as log10 of IC50 expressed in nM

compound: CN(C)CCOC(=O)C1(c2ccccc2)CCCCC1.Cl [Compound 19, hydrochloride]
log10(IC50): 2.88

Problem: Which log10(IC50) reading was recorded for the compound O=C(OCCN1CCCC1)C1(c2ccccc2)CCCCC1 [Compound 8, hydrochloride] ?
Result: 2.09

Problem: Lookup O=C(OCCN1CCCCC1)C1(c2ccccc2)CCCCC1 [Compound 3, hydrochloride]
Result: 1.66

Problem: Another compound to look at: CCN(CC)CCOC(=O)C1(c2ccccc2)CCCCC1.Cl [Compound 15, hydrochloride]
Result: 2.28

Problem: Now this one: O=C(OCCN1CCOCC1)C1(c2ccccc2)CCCCC1 [Compound 12, hydrochloride]
Result: 4.15

====

target: PCP RECEPTOR; assay: PCP receptor binding assay ([3H]-TCP displacement, brain membranes); design: species or system guinea-pig (male Hartley); conditions: Table 1; mean ± error (n); read-out: PCP RECEPTOR IC50
reportedMetric: pIC50
pIC50 (log units): -log10 of the concentration in mol/L.

Use the examples below as a reference point.
compound: CN(C)CCOC(=O)C1(c2ccccc2)CCCCC1.Cl [Compound 19, hydrochloride]
observedResult: 4.66
--
compound: CCN(CC)CCOC(=O)C1(c2ccccc2)CCCCC1.Cl [Compound 15, hydrochloride]
observedResult: 4.39
--
compound: c1ccc(C2(CCN3CCCC3)CCCCC2)cc1 [Compound 7]
observedResult: 5.76
--
compound: c1ccc(C2(N3CCCC3)CCCCC2)cc1 [Compound 5, 1-(1-phenylcyclohexyl)pyrrolidine, reference compound]
observedResult: 6.96
--
compound: c1ccc(C2(CN3CCCC3)CCCCC2)cc1 [Compound 6]
observedResult: 5.90

Problem: Quick one: pIC50 of c1ccc(C2(N3CCOCC3)CCCCC2)cc1 [Compound 10, 4-(1-phenylcyclohexyl)morpholine, reference compound] ?
Result: 6.20

Problem: Same read-out for CCN(CC)C1(c2ccccc2)CCCCC1 [Compound 13, N,N-diethyl-1-phenylcyclohexylamine, reference compound] ?
Result: 6.48

Problem: Lookup c1ccc(C2(CN3CCCCC3)CCCCC2)cc1 [Compound 2]
Result: 5.74

====

The following compounds are listed with their measured SIGMA RECEPTOR SLOPE values.
molecular target: SIGMA RECEPTOR (Cavia porcellus, UniProt Q60492); construct: Two milliter aliquots of the brain membrane preparation, containing 1.7 mg of protein; tissue Pel-Freeze (Rogers, Arkansas); host or cells: guinea-pig brains plus cerebella, membranes; experiment: Sigma receptor binding assay ([3H]-d-SKF-10,047 displacement, brain membranes); design: species or system guinea-pig (male Hartley); settings: Table 1; slope of dose response curve
Sequence (Q60492 whole entry): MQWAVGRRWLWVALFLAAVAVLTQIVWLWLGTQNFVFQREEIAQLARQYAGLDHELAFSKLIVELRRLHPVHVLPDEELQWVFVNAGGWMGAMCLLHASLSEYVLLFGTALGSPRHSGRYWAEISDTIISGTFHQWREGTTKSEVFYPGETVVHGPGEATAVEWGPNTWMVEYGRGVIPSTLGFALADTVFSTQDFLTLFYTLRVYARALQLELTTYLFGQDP
Where a name gives a salt, the structure may show the parent alone.
Lab note: write the figure by itself, no unit.

compound: c1ccc(C2(CCN3CCCC3)CCCCC2)cc1
measuredOn: SIGMA RECEPTOR (Cavia porcellus, UniProt Q60492)
SIGMA RECEPTOR SLOPE: 1.22
--
compound: CN(C)C1(c2ccccc2)CCCCC1 [Compound 17, N,N-dimethyl-1-phenylcyclohexylamine, reference compound]
measuredOn: SIGMA RECEPTOR (Cavia porcellus, UniProt Q60492)
SIGMA RECEPTOR SLOPE: 0.53
--
compound: C[N+]1(CCOC(=O)C2(c3ccccc3)CCCCC2)CCCC1
measuredOn: SIGMA RECEPTOR (Cavia porcellus, UniProt Q60492)
SIGMA RECEPTOR SLOPE: 0.62

Lab note: next compound to report on.
Problem: Recorded SIGMA RECEPTOR SLOPE for O=C(OCCN1CCCCC1)C1(c2ccccc2)CCCCC1 [Compound 3, hydrochloride] , please?
Result: 0.45

====

tested on: MUSCARINIC ACETYLCHOLINE; type: binding, guinea-pig; conditions: read-out: potency (IC50) at muscarinic acetylcholine receptor
Counter-ions that a name gives are not always drawn.
reportedMetric: IC50 (nM)
Express it in nM; write the number only.

compound: CCN(CC)CCOC(=O)C1(c2ccccc2)CCCCC1.Cl [Compound 15, hydrochloride]
unitName: nM
IC50: 189

compound: CN(C)CCOC(=O)C1(c2ccccc2)CCCCC1.Cl [Compound 19, hydrochloride]
unitName: nM
IC50: 750

compound: O=C(OCCN1CCCCC1)C1(c2ccccc2)CCCCC1 [Compound 3, hydrochloride]
unitName: nM
IC50: 46

Problem: Entry under review: O=C(OCCN1CCCC1)C1(c2ccccc2)CCCCC1 [Compound 8, hydrochloride] . Reported IC50?
Result: 23

Problem: Again, but for O=C(OCCN1CCOCC1)C1(c2ccccc2)CCCCC1 [Compound 12, hydrochloride]
Result: 14000

====

Biological target: SIGMA RECEPTOR (Cavia porcellus)
Construct: Two milliter aliquots of the brain membrane preparation, containing 1.7 mg of protein; tissue Pel-Freeze (Rogers, Arkansas); host or cells: guinea-pig brains plus cerebella, membranes
Assay: Sigma receptor binding assay ([3H]-d-SKF-10,047 displacement, brain membranes)
Parameters: species or system guinea-pig (male Hartley)
Conditions: SIGMA RECEPTOR IC50, Table 1; mean ± error (n)
Description: This example illustrates testing of compounds in receptor binding assays. Frozen brains from male Hartley guinea-pigs were obtained from Pel-Freeze (Rogers, Arkansas). The brains plus cerebella were homogenized in 10 volumes (v/w) of 0.1M, pH 7.4, ice-cold Tris-HCl buffer with a Brinkmann polytron at setting 4 for 20 seconds. […] The filters were transferred to 5 ml of liquid scintillation fluid and the retained radioactivity was measured by liquid scintillation spectrometry.
# key: entry, value: IC50
Use µM as the unit, but write only the number.

molecule: c1ccc(C2(N3CCCC3)CCCCC2)cc1 [Compound 5, 1-(1-phenylcyclohexyl)pyrrolidine, reference compound]
IC50 [µM]: 7.73

molecule: CN(C)C1(c2ccccc2)CCCCC1 [Compound 17, N,N-dimethyl-1-phenylcyclohexylamine, reference compound]
IC50 [µM]: 1.95

molecule: CCN(CC)C1(c2ccccc2)CCCCC1 [Compound 13, N,N-diethyl-1-phenylcyclohexylamine, reference compound]
IC50 [µM]: 0.573

Then this molecule:
Problem: Give the measured IC50 of c1ccc(C2(N3CCOCC3)CCCCC2)cc1 [Compound 10, 4-(1-phenylcyclohexyl)morpholine, reference compound] .
Result: 2.53

====

biological target: SIGMA RECEPTOR (Cavia porcellus); construct: Two milliter aliquots of the brain membrane preparation, containing 1.7 mg of protein; tissue Pel-Freeze (Rogers, Arkansas); host or cells: guinea-pig brains plus cerebella, membranes; assay: Sigma receptor binding assay ([3H]-d-SKF-10,047 displacement, brain membranes); design: species or system guinea-pig (male Hartley); settings: Table 2
reportedMetric: SIGMA RECEPTOR SLOPE

Before answering, review these 5 worked examples.
structureString: CCN(CC)CC1(c2ccc([N+](=O)[O-])cc2)CCCCC1
measuredOn: SIGMA RECEPTOR (Cavia porcellus)
reportedMetric: SIGMA RECEPTOR SLOPE
observedResult: 0.44 ± 0.01

structureString: CCN(CC)CC1(c2ccccc2)CCCCC1
measuredOn: SIGMA RECEPTOR (Cavia porcellus)
reportedMetric: SIGMA RECEPTOR SLOPE
observedResult: 0.66 ± 0.17

structureString: COc1ccc(C2(CN(C)C)CCCCC2)cc1OC
measuredOn: SIGMA RECEPTOR (Cavia porcellus)
reportedMetric: SIGMA RECEPTOR SLOPE
observedResult: 0.66 ± 0.13

structureString: c1ccc(C2(CN3CCCCC3)CCCCC2)cc1
measuredOn: SIGMA RECEPTOR (Cavia porcellus)
reportedMetric: SIGMA RECEPTOR SLOPE
observedResult: 0.66 ± 0.1

structureString: CN(C)CC1(c2cccc(O)c2)CCCCC1
measuredOn: SIGMA RECEPTOR (Cavia porcellus)
reportedMetric: SIGMA RECEPTOR SLOPE
observedResult: 0.61 ± 0.01

Problem: Fill in: SIGMA RECEPTOR SLOPE of `O=[N+]([O-])c1ccc(C2(CN3CCCC3)CCCCC2)cc1` is ___
Result: 0.65 ± 0.05

Problem: Also check `c1ccc(C2(CN3CCOCC3)CCCCC2)cc1`
Result: 0.60 ± 0.03

====

Target: SIGMA RECEPTOR (Cavia porcellus)
Construct: Two milliter aliquots of the brain membrane preparation, containing 1.7 mg of protein; tissue Pel-Freeze (Rogers, Arkansas); host or cells: guinea-pig brains plus cerebella, membranes
Assay: Sigma receptor binding assay ([3H]-d-SKF-10,047 displacement, brain membranes)
Set-up: species or system guinea-pig (male Hartley)
Conditions: Table 3
Protocol: This example illustrates testing of compounds in receptor binding assays. Frozen brains from male Hartley guinea-pigs were obtained from Pel-Freeze (Rogers, Arkansas). The brains plus cerebella were homogenized in 10 volumes (v/w) of 0.1M, pH 7.4, ice-cold Tris-HCl buffer with a Brinkmann polytron at setting 4 for 20 seconds. […] The filters were transferred to 5 ml of liquid scintillation fluid and the retained radioactivity was measured by liquid scintillation spectrometry.
Where a name gives a salt, the structure may show the parent alone.
Entries and their measured SIGMA RECEPTOR SLOPE follow.
Field format: numeric only.

Examples with their reported SIGMA RECEPTOR SLOPE follow.
molecule: c1ccc(C2(CN3CCCCC3)CC2)cc1 [Compound 45]
SIGMA RECEPTOR SLOPE: 0.83
--
molecule: O=C(OCCN1CCCC1)C1(c2ccccc2)CCCC1 [Compound 46]
SIGMA RECEPTOR SLOPE: 0.68
--
molecule: c1ccc(C2(CN3CCCCC3)CCCCC2)cc1 [Compound 2]
SIGMA RECEPTOR SLOPE: 0.66
--
molecule: O=C(OCCN1CCCC1)C1(c2ccccc2)CC1 [Compound 47, hydrochloride]
SIGMA RECEPTOR SLOPE: 0.78

Lab note: next molecule to report on.
Problem: Provide value of SIGMA RECEPTOR SLOPE for this record tested with SIGMA RECEPTOR (Cavia porcellus): c1ccc(C2(CN3CCCCC3)CCCC2)cc1 [Compound 44]
Result: 1.03
